# study-system: IKKε (Homo sapiens, UniProt Q14164)
# Construct: His-tag; made in house; host or cells: Sf9 insect cells
# Sequence (Q14164 1-716): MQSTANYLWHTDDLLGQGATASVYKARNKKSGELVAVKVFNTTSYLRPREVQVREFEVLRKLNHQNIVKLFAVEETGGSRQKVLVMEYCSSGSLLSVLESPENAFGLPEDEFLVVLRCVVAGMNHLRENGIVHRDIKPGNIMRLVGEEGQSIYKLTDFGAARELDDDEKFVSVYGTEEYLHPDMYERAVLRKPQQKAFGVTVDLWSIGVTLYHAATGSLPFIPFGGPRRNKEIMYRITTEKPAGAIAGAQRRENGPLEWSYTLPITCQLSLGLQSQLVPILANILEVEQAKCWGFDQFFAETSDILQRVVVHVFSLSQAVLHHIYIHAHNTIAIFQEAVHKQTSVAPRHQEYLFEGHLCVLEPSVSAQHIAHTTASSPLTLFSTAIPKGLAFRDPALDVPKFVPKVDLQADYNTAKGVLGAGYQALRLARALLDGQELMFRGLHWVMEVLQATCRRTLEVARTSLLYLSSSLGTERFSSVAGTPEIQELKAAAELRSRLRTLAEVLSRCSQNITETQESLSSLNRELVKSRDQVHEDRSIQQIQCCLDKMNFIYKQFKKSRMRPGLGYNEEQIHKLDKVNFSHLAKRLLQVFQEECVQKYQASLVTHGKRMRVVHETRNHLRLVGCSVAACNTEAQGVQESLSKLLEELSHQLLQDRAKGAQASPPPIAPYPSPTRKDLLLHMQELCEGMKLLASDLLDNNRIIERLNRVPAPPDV
# assay-overview: In-vitro IKKε kinase assay ([γ33]ATP filter-plate)
# Type: biochemical
# condition-set: text bins; read-out: IC50 for inhibition of the kinase activity of IKKε
Listed below: IC50 values for each entry.

**Q:** What does the record list as IC50 for `COc1ccc(Nc2nccc(-c3ccc(OCc4ccccc4)c(C#N)c3)n2)cc1OC` ?
**A:** 5 to 50 nM

**Q:** What does the record list as IC50 for `COc1ccc(Nc2nccc(-c3ccc(OC4CCOCC4)c(C#N)c3)n2)cc1OCCCN1CCN(C(=O)C(C)C)CC1` ?
**A:** < 5 nM

**Q:** What does the record list as IC50 for `COc1ccc(-c2ccnc(Nc3ccc(CN4CCOCC4)cc3)n2)cc1C#N` ?
**A:** 5 to 50 nM

Further cases:
**Q:** What does the record list as IC50 for `COc1cc(NC(=O)N[C@H]2CC[C@H](O)CC2)cc(Nc2nccc(-c3ccc(OC)c(C#N)c3)n2)c1` ?
**A:** 5 to 50 nM

**Q:** What does the record list as IC50 for `CC(C)N1CCN(CCOc2cc(Nc3nccc(-c4ccc(OCC5CC5)c(C#N)c4)n3)ccc2F)CC1` ?
**A:** < 5 nM

###

Listed below: IC50 values for each entry.
# study-system: TBK1 (Homo sapiens)
# Construct: His-tag; made in house; host or cells: Sf9 insect cells
# Sequence (Q9UHD2 whole entry): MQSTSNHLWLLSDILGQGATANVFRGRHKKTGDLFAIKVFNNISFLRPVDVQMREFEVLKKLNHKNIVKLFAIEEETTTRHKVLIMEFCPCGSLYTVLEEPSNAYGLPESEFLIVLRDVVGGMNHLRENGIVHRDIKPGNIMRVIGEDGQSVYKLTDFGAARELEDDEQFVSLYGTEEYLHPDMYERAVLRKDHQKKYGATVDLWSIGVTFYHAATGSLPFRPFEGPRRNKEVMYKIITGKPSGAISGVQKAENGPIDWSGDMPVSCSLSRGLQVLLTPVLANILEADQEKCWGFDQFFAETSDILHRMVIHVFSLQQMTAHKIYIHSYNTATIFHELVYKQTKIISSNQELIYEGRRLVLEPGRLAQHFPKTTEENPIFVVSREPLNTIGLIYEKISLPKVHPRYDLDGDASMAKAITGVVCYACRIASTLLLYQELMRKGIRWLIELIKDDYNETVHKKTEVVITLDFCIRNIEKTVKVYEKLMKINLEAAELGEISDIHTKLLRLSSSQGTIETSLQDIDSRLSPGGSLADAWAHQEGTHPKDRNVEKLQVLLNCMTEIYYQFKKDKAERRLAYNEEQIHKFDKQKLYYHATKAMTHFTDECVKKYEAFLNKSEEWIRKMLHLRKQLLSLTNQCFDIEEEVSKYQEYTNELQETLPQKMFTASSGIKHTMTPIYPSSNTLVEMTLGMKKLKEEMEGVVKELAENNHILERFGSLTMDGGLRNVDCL
# assay-overview: In-vitro TBK1 kinase assay ([γ33]ATP filter-plate)
# Format: biochemical
# condition-set: text bins; read-out: IC50 for inhibition of the kinase activity of TBK1

These solved cases illustrate the format of a correct answer.
**Q:** What value of IC50 on TBK1 (Homo sapiens) does CN(C)c1ccc(Nc2nccc(-c3cccc(C#N)c3)n2)cc1 [Example 286] have?
**A:** 0.1 to 0.5 µM

**Q:** What value of IC50 on TBK1 (Homo sapiens) does CN(C)CCNS(=O)(=O)c1ccc(Nc2nccc(-c3ccc(OC4CCOCC4)c(C#N)c3)n2)cc1 [compound 334] have?
**A:** < 0.01 µM

**Q:** What value of IC50 on TBK1 (Homo sapiens) does COc1cc(Nc2nccc(-c3ccc(OC4CCOCC4)c(C#N)c3)n2)ccc1C(=O)N(C)C1CCN(C)C1 (stereo not shown) [compound 385] have?
**A:** < 0.01 µM

Further cases:
**Q:** What value of IC50 on TBK1 (Homo sapiens) does COc1cc(Nc2nccc(-c3ccc(OC4CCOCC4)c(C#N)c3)n2)ccc1S(=O)(=O)NCCCN(C)C [Example 237] have?
**A:** < 0.01 µM

**Q:** What value of IC50 on TBK1 (Homo sapiens) does COc1ccc(-c2ccnc(Nc3ccc(S(=O)(=O)NCCCO)c(OC)c3)n2)cc1C#N [compound 303] have?
**A:** 0.01 to 0.1 µM

**Q:** What value of IC50 on TBK1 (Homo sapiens) does N#Cc1cc(-c2ccnc(Nc3ccc(N4CCN(CCO)CC4)cc3)n2)ccc1OCC1CC1 [compound 439] have?
**A:** < 0.01 µM

**Q:** What value of IC50 on TBK1 (Homo sapiens) does CC(C)(C)OC(=O)NCc1ccc(Nc2nccc(-c3ccc(OC4CCOCC4)c(C#N)c3)n2)cc1 [compound 491] have?
**A:** < 0.01 µM

**Q:** What value of IC50 on TBK1 (Homo sapiens) does COc1cc(NC(=O)NCCO)cc(Nc2nccc(-c3ccc(OC4CCN(C(C)=O)CC4)c(C#N)c3)n2)c1 [compound 380] have?
**A:** 0.01 to 0.1 µM

**Q:** What value of IC50 on TBK1 (Homo sapiens) does COc1cc(Nc2nccc(-c3ccc(OC4CCOCC4)c(C#N)c3)n2)ccc1C(=O)N1CCN2CCCC2C1 (stereo not shown) [compound 501] have?
**A:** < 0.01 µM

**Q:** What value of IC50 on TBK1 (Homo sapiens) does COCCNCc1ccc(Nc2nccc(-c3ccc(NC(=O)C4CC4)c(C#N)c3)n2)cc1 [compound 557] have?
**A:** 0.01 to 0.1 µM

###

# study-system: TBK1 (Homo sapiens)
# Construct: His-tag; made in house; host or cells: Sf9 insect cells
# assay-overview: In-vitro TBK1 kinase assay ([γ33]ATP filter-plate)
# Format: biochemical
# condition-set: text bins; read-out: IC50 for inhibition of the kinase activity of TBK1
pIC50: −log10 of the molar value.
Listed below: pIC50 values for each entry.

These solved cases illustrate the format of a correct answer.
**Q:** What does the record list as pIC50 for `CNS(=O)(=O)Cc1ccc(Nc2nccc(-c3ccc(OC4CCOCC4)c(C#N)c3)n2)cc1` ?
**A:** > 8.00

**Q:** What does the record list as pIC50 for `N#Cc1cc(-c2ccnc(Nc3ccc4scnc4c3)n2)ccc1OC1CCOCC1` ?
**A:** > 8.00

**Q:** What does the record list as pIC50 for `CC(C)C(=O)Nc1ccc(-c2ccnc(Nc3cccc(CC(=O)N4CCOCC4)c3)n2)cc1C#N` ?
**A:** 7.00 to 8.00

**Q:** What does the record list as pIC50 for `CC(=O)Nc1ccc(-c2ccnc(Nc3ccc(N4CCOCC4)cc3)n2)cc1C#N` ?
**A:** 7.00 to 8.00

**Q:** What does the record list as pIC50 for `N#Cc1cc(-c2ccnc(Nc3cccc(-c4nnn[nH]4)c3)n2)ccc1OC1CCOCC1` ?
**A:** > 8.00

**Q:** What does the record list as pIC50 for `COc1cc(NC(=O)NC[C@H](C)O)cc(Nc2nccc(-c3ccc(OC)c(C#N)c3)n2)c1` ?
**A:** 7.00 to 8.00

**Q:** What does the record list as pIC50 for `COc1ccc(-c2ccnc(Nc3cccc(S(N)(=O)=O)c3)n2)cc1C#N` ?
**A:** 7.00 to 8.00

**Q:** What does the record list as pIC50 for `N#Cc1cccc(-c2ccnc(Nc3ccc(N)cc3)n2)c1` ?
**A:** 6.30 to 7.00

Further cases:
**Q:** What does the record list as pIC50 for `COc1cc(NC(=O)N2CC[C@H](O)C2)cc(Nc2nccc(-c3ccc(OC)c(C#N)c3)n2)c1` ?
**A:** 7.00 to 8.00

**Q:** What does the record list as pIC50 for N#Cc1cc(-c2ccnc(Nc3ccc(N4CCOCC4)cc3)n2)ccc1OCC1CCN(C(=O)CO)C1 (stereo not shown) ?
**A:** > 8.00

**Q:** What does the record list as pIC50 for COC(=O)C(C)Oc1ccc(-c2ccnc(Nc3ccc(N4CCOCC4)cc3)n2)cc1C#N (stereo not shown) ?
**A:** 7.00 to 8.00

**Q:** What does the record list as pIC50 for `N#Cc1cc(-c2ccnc(Nc3ccc(N4CCOCC4)cc3)n2)ccc1OC1CNC1` ?
**A:** > 8.00

**Q:** What does the record list as pIC50 for `CNc1ccc(-c2ccnc(Nc3ccc(N4CCOCC4)cc3)n2)cc1C#N` ?
**A:** > 8.00

###

# study-system: IKKε (Homo sapiens, UniProt Q14164)
# Construct: His-tag; made in house; host or cells: Sf9 insect cells
# assay-overview: In-vitro IKKε kinase assay ([γ33]ATP filter-plate)
# Type: biochemical
# condition-set: text bins; read-out: IC50 for inhibition of the kinase activity of IKKε
pIC50: −log10 of the molar value.
endpoint-label: pIC50

These solved cases illustrate the format of a correct answer.
**Q:** What does the record list as pIC50 for `N#Cc1cc(-c2ccnc(Nc3ccc(N4CCOCC4)cc3)n2)ccc1OC1CN(CCO)C1` ?
**A:** 6.30 to 7.30

**Q:** What does the record list as pIC50 for `N#Cc1cc(-c2ccnc(Nc3ccc(N4CCOCC4)cc3)n2)ccc1OCCCN` ?
**A:** 7.30 to 8.30

**Q:** What does the record list as pIC50 for `N#Cc1cc(-c2ccnc(Nc3ccc(-c4cccnc4)cc3)n2)ccc1OC1CCOCC1` ?
**A:** > 8.30

**Q:** What does the record list as pIC50 for N#Cc1cc(-c2ccnc(Nc3ccc(N4CCOCC4)cc3)n2)ccc1OC1CCN(C=O)C1 (stereo not drawn) ?
**A:** 7.30 to 8.30

Further cases:
**Q:** What does the record list as pIC50 for `N#Cc1cc(-c2ccnc(Nc3ccc(N4CCOCC4)cc3)n2)ccc1N` ?
**A:** 7.30 to 8.30

**Q:** What does the record list as pIC50 for `CCN(CC)CCOc1cc(Nc2nccc(-c3ccc(OC4CCN(C(=O)[C@H](C)O)CC4)c(C#N)c3)n2)ccc1F` ?
**A:** > 8.30

**Q:** What does the record list as pIC50 for `N#Cc1cc(-c2ccnc(Nc3cccc(-n4ccnc4)c3)n2)ccc1OC1CCOCC1` ?
**A:** > 8.30
